Each record here notes measured pIC50.
Molecular target: androgen receptor (AR) (Homo sapiens, UniProt P10275, T878A)
Construct: LNCaP cells expressing ARR2PB-FireflyLuc and CMV-RenillaLuc; endogenous in cells; host or cells: LNCaP cells carrying ARR2PB-FireflyLuc and CMV-RenillaLuc reporters
Sequence (P10275 1-920 T878A): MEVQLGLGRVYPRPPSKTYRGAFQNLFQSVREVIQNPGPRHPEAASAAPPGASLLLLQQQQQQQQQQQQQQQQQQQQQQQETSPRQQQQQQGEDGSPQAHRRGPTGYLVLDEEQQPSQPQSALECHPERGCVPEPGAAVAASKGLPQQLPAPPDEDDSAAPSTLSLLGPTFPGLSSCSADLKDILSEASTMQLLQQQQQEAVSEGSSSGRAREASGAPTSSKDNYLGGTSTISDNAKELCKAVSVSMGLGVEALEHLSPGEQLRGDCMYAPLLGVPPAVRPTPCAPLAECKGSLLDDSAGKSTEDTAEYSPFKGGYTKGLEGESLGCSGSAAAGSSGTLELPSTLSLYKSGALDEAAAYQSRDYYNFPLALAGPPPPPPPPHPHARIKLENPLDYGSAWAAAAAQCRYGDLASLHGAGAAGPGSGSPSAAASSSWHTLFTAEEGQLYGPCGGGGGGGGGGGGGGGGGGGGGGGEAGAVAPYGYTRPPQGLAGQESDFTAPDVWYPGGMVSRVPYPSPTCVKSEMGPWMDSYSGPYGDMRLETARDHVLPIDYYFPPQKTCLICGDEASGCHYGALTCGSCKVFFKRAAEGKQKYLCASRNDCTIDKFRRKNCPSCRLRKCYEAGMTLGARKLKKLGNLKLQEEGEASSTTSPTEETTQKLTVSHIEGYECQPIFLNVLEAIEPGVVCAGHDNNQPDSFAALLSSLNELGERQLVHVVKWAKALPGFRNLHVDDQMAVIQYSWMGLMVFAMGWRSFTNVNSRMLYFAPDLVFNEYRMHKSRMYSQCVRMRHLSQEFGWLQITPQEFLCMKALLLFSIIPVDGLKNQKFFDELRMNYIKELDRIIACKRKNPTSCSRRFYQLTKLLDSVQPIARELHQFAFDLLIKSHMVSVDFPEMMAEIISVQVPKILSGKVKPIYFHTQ
Assay: AR reporter assay in LNCaP cells expressing ARR2PB-FireflyLuc and CMV-RenillaLuc, antagonist mode (% remaining activity, IC50)
Format: cell-based
Conditions: 48 h at 37° C., class symbols A-D, read-out: IC50
pIC50: −log10 of the molar value.
Value kind: pIC50

>  <Compound>
CC(=O)N1CCC(Oc2ncc(-c3n[nH]c4c(Cl)cccc34)nc2C)C1 (stereo not drawn)

>  <Measured on>
androgen receptor (AR) (Homo sapiens, UniProt P10275, T878A)

>  <Value kind>
pIC50

>  <Readout value>
6.00 to 7.00

$$$$
>  <Compound>
CN1C(=O)c2ccc(-c3c[nH]c4c(C#N)cccc34)nc2C1(C)C

>  <Measured on>
androgen receptor (AR) (Homo sapiens, UniProt P10275, T878A)

>  <Value kind>
pIC50

>  <Readout value>
6.00 to 7.00

$$$$
>  <Compound>
N#Cc1cccc2c(-c3cnc(NC4CCNC4)c(OC(F)F)n3)c[nH]c12 (stereo not drawn)

>  <Measured on>
androgen receptor (AR) (Homo sapiens, UniProt P10275, T878A)

>  <Value kind>
pIC50

>  <Readout value>
6.00 to 7.00

$$$$
>  <Compound>
CC1(C)NC(=O)c2ccc(-c3c[nH]c4c(C#N)cccc34)cc21

>  <Measured on>
androgen receptor (AR) (Homo sapiens, UniProt P10275, T878A)

>  <Value kind>
pIC50

>  <Readout value>
6.00 to 7.00

$$$$
>  <Compound>
Fc1cc2[nH]nc(-c3ccc4c(n3)CCOC4)c2cc1F

>  <Measured on>
androgen receptor (AR) (Homo sapiens, UniProt P10275, T878A)

>  <Value kind>
pIC50

>  <Readout value>
5.00 to 6.00

$$$$
>  <Compound>
CCc1nc(-c2c[nH]c3c(C#N)cccc23)cnc1OC1CCNC1 (stereo not drawn) [Compound 305]

>  <Measured on>
androgen receptor (AR) (Homo sapiens, UniProt P10275, T878A)

>  <Value kind>
pIC50

>  <Readout value>
< 5.00

$$$$

----------
Target: androgen receptor (AR) (Homo sapiens, UniProt P10275, T878A)
Construct: LNCaP cells expressing ARR2PB-FireflyLuc and CMV-RenillaLuc; endogenous in cells; host or cells: LNCaP cells carrying ARR2PB-FireflyLuc and CMV-RenillaLuc reporters
Experiment: AR reporter assay in LNCaP cells expressing ARR2PB-FireflyLuc and CMV-RenillaLuc, antagonist mode (% remaining activity, IC50)
Assay type: cell-based
Settings: 48 h at 37° C., class symbols A-D, read-out: IC50
Reported IC50 values for a set of compounds
Value kind: IC50

>  <Compound>
N#Cc1cccc2c(-c3ccc(OC4CCNC4)c(Cl)c3)c[nH]c12 (stereo not shown)

>  <Value kind>
IC50

>  <Readout value>
1000 to 10000 nM

$$$$
>  <Compound>
Fc1cc2[nH]nc(-c3ncc4c(n3)CCCN4)c2cc1F

>  <Value kind>
IC50

>  <Readout value>
> 10000 nM

$$$$
>  <Compound>
Fc1ccc(-c2n[nH]c3ncccc23)cc1

>  <Value kind>
IC50

>  <Readout value>
1000 to 10000 nM

$$$$
>  <Compound>
Fc1cc(-c2c[nH]c3c(Cl)cccc23)ccc1OC1CCNC1 (stereo not shown)

>  <Value kind>
IC50

>  <Readout value>
1000 to 10000 nM

$$$$
>  <Compound>
CC(=O)N1CCc2ccc(-c3n[nH]c4ccccc34)nc2C1

>  <Value kind>
IC50

>  <Readout value>
> 10000 nM

$$$$
>  <Compound>
COc1ccc(-c2c[nH]c3c(C#N)cccc23)nc1C

>  <Value kind>
IC50

>  <Readout value>
< 100 nM

$$$$
>  <Compound>
CC(=O)c1cccc2c(-c3ccc(N)c(C)n3)c[nH]c12

>  <Value kind>
IC50

>  <Readout value>
> 10000 nM

$$$$
>  <Compound>
CNC(=O)c1ccc(-c2n[nH]c3cc(F)c(F)cc23)nc1C

>  <Value kind>
IC50

>  <Readout value>
> 10000 nM

$$$$
>  <Compound>
N#Cc1cccc2c(-c3cncc(N4CCC4)n3)c[nH]c12

>  <Value kind>
IC50

>  <Readout value>
100 to 1000 nM

$$$$
>  <Compound>
CN1CCCc2nc(-c3n[nH]c4cc(F)c(F)cc34)ccc21

>  <Value kind>
IC50

>  <Readout value>
1000 to 10000 nM

$$$$
>  <Compound>
CCc1nc(-c2c[nH]c3c(C#N)cccc23)cnc1N

>  <Value kind>
IC50

>  <Readout value>
100 to 1000 nM

$$$$
>  <Compound>
N#Cc1cccc2c(-c3ccc4ccc(F)cc4n3)c[nH]c12

>  <Value kind>
IC50

>  <Readout value>
< 100 nM

$$$$
>  <Compound>
COc1nc(-c2c[nH]c3c(C#N)cccc23)cnc1OC1CCN(C(C)=O)C1 (stereo not shown) [Compound 278]

>  <Value kind>
IC50

>  <Readout value>
1000 to 10000 nM

$$$$

----------
Target: androgen receptor (AR) (Homo sapiens, UniProt P10275, T878A)
Construct: LNCaP cells expressing ARR2PB-FireflyLuc and CMV-RenillaLuc; endogenous in cells; host or cells: LNCaP cells carrying ARR2PB-FireflyLuc and CMV-RenillaLuc reporters
Sequence (P10275 1-920 T878A): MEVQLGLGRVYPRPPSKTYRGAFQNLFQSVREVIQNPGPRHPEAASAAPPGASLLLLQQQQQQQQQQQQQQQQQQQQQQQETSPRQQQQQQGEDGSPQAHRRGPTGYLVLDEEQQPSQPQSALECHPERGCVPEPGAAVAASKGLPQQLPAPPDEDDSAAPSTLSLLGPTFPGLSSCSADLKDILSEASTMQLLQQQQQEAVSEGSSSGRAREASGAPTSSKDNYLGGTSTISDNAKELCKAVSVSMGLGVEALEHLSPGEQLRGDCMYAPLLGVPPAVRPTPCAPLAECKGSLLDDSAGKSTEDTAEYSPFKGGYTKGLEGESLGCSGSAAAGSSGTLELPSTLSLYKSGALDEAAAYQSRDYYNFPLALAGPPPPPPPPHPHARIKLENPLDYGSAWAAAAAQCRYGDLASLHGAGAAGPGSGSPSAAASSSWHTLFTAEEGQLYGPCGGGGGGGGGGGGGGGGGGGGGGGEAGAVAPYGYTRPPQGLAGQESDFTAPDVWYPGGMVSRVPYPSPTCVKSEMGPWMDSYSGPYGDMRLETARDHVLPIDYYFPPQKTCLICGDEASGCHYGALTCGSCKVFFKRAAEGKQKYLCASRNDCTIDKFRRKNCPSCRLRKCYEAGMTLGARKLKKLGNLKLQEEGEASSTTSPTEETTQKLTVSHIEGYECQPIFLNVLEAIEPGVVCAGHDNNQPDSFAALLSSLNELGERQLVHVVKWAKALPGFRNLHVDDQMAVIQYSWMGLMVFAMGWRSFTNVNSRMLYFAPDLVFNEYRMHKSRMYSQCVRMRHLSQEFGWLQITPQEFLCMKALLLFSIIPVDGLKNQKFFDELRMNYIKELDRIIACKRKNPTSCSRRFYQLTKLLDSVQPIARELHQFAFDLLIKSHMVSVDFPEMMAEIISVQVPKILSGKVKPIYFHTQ
Assay: AR reporter assay in LNCaP cells expressing ARR2PB-FireflyLuc and CMV-RenillaLuc, antagonist mode (% remaining activity, IC50)
Format: cell-based
Conditions: 48 h at 37° C., class symbols A-D, read-out: IC50

>  <Molecule>
Cc1nc(-c2coc3c(Cl)cccc23)cnc1N

>  <IC50>
1000 to 10000 nM

$$$$
>  <Molecule>
CC(=O)N1CC(Oc2ncc(-c3c[nH]c4c(C#N)cccc34)nc2C)C(F)(F)C1 (stereo not drawn)

>  <IC50>
100 to 1000 nM

$$$$
>  <Molecule>
CN1C(=O)c2ccc(-c3c[nH]c4c(Cl)cccc34)nc2C1(C)C

>  <IC50>
100 to 1000 nM

$$$$
>  <Molecule>
Cc1nc(-c2c[nH]c3c(C#N)cccc23)cnc1O[C@@H]1CNC[C@@H]1F

>  <IC50>
100 to 1000 nM

$$$$
>  <Molecule>
O=c1ccc2nc(-c3n[nH]c4ccccc34)ccc2[nH]1

>  <IC50>
1000 to 10000 nM

$$$$
>  <Molecule>
Fc1ccc(-c2n[nH]c3ccccc23)nc1

>  <IC50>
1000 to 10000 nM

$$$$
>  <Molecule>
CN1CCN(c2ccnc(-c3n[nH]c4ccccc34)c2)CC1

>  <IC50>
> 10000 nM

$$$$
>  <Molecule>
Cc1nc(-c2c[nH]c3c(C#N)cccc23)ccc1N

>  <IC50>
100 to 1000 nM

$$$$
>  <Molecule>
c1cnc2ccc(-c3n[nH]c4ccccc34)nc2c1

>  <IC50>
< 100 nM

$$$$

Where do these numbers come from? They come from patent US12448368B2.
